# assay_system: Cytochrome P450 1A2 (Homo sapiens, UniProt P05177)
# Sequence (P05177 whole entry): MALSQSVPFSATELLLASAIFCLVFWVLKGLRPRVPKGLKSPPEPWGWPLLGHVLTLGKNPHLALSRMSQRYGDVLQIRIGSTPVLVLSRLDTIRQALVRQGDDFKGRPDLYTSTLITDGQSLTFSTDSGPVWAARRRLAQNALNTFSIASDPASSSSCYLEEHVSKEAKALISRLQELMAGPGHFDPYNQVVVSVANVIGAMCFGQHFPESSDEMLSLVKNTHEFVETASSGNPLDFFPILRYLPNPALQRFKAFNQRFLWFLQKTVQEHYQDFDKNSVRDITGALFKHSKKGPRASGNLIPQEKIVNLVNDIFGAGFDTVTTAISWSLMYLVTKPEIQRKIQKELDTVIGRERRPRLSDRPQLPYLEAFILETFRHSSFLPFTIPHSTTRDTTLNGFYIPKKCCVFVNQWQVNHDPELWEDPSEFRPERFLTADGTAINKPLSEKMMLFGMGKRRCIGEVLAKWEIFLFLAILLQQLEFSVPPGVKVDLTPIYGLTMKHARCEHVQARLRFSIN
test_readout: IC50

| sample_smiles | assay_system | measured_value |
| --- | --- | --- |
| O=C(Nc1ccc(-c2nc(N3C4CCC3COC4)nc(N3C4CCC3COC4)n2)cc1)Nc1ccc2c(c1)COC2=O | Cytochrome P450 1A2 (Homo sapiens, UniProt P05177) | > 10 µM |

###

# test_summary: in vivo
# conditions: BALB/c, mouse, iv, 5 mg/kg

| sample_smiles | unit_string | Cmax at 12 h |
| --- | --- | --- |
| CN(C)C1CCN(C(=O)c2ccc(NC(=O)Nc3ccc(-c4nc(N5CCOCC5)nc(N5CCOCC5)n4)cc3)cc2)CC1 | ng/mL | 44000 |

###

# test_summary: in vivo
# conditions: BALB/c, mouse, iv, 5 mg/kg
test_readout: AUC(0-inf) at 12 h

| molecule | measured_value |
| --- | --- |
| CN(C)C1CCN(C(=O)c2ccc(NC(=O)Nc3ccc(-c4nc(N5CCOCC5)nc(N5CCOCC5)n4)cc3)cc2)CC1 [GEDATOLISIB] | 32100 ng·h/mL |

###

# test_summary: in vivo
# conditions: BALB/c, mouse, iv, 5 mg/kg

| sample_smiles | Cmax at 12 h (ng/mL) |
| --- | --- |
| CN(C)C1CCN(C(=O)c2ccc(NC(=O)Nc3ccc(-c4nc(N5CCOCC5)nc(N5CCOCC5)n4)cc3)cc2)CC1 | 10700 |

###

Listed below: IC50 values for each entry.
# assay_system: Phosphatidylinositol 4,5-bisphosphate 3-kinase catalytic subunit gamma isoform (Homo sapiens, UniProt P48736)
# Sequence (P48736 whole entry, canonical isoform): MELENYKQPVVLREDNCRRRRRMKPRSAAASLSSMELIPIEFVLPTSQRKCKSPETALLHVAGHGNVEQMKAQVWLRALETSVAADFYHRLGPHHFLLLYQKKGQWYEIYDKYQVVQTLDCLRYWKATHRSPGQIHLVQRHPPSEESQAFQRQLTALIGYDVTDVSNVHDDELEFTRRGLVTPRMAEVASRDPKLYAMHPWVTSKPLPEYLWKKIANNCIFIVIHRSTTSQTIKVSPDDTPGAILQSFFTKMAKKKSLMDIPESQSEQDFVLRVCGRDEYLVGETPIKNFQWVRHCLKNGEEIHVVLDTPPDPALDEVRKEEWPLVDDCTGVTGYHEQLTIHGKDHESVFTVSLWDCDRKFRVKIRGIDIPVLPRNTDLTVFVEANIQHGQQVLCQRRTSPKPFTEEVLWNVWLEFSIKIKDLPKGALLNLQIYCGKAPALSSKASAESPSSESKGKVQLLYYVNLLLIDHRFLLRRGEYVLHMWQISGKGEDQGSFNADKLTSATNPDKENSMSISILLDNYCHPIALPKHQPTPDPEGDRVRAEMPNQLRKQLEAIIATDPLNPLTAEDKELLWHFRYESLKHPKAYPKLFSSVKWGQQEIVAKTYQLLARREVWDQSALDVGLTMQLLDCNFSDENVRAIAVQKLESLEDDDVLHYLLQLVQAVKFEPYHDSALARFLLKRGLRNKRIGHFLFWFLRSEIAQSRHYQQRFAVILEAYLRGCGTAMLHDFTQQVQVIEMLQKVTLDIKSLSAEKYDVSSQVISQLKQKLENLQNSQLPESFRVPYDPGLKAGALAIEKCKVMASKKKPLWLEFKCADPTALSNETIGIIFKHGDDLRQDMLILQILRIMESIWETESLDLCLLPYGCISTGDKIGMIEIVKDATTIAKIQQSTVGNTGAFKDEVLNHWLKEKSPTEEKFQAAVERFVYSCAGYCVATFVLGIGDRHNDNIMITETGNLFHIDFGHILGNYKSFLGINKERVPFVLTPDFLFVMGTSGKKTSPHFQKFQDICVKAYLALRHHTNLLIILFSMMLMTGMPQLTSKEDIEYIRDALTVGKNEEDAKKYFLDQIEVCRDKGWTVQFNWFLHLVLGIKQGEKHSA
# test_summary: Inhibition of PI3Kgamma (unknown origin) by ADP-glo plus luminescence assay

| sample_smiles | unit_string | measurement_qualifier | IC50 |
| --- | --- | --- | --- |
| C[C@H]1COCCN1c1nc(-c2ccc(NC(=O)Nc3ccc4c(c3)COC4=O)cc2)nc(N2CCOCC2)n1 | µM | = | 0.725 |
| O=C(Nc1ccc(-c2nc(N3CCOCC3)nc(N3C4CCC3COC4)n2)cc1)Nc1ccc2c(c1)COC2=O | µM | = | 1.94 |
| O=C(Nc1ccc(-c2nc(N3CCOCC3)nc(N3CCOCC3)n2)cc1)Nc1ccc2c(c1)CNC2=O | µM | = | 0.0255 |
| O=C(Nc1ccc(-c2nc(N3CCOCC3)nc(N3CCO[C@@H](CO)C3)n2)cc1)Nc1ccc2c(c1)COC2=O | µM | = | 0.228 |
| O=C(Nc1ccc(-c2nc(N3CCOCC3)nc(N3CCOCC3)n2)cc1)Nc1ccc2c(c1)COC2=O | µM | = | 0.162 |
| O=C(Nc1ccc(-c2nc(N3C4CCC3COC4)nc(N3C4CCC3COC4)n2)cc1)Nc1ccc2c(c1)COC2=O | µM | > | 10 |
| O=C(Nc1ccc(-c2nc(N3CCOCC3)nc(N3CCO[C@H](CO)C3)n2)cc1)Nc1ccc2c(c1)COC2=O | µM | = | 0.228 |

###

# Test system: HepG2
# test_summary: Antiproliferative activity against human HepG2 cells assessed as inhibition of cell growth incubated for 48 hrs by CCK-8 assay
# Format: functional, cell-based
# conditions: HepG2, 48 h
Listed below: IC50 values for each entry.
test_readout: IC50 (µM)

| sample_smiles | measurement_qualifier | measured_value |
| --- | --- | --- |
| O=C(Nc1ccc(-c2nc(N3CCOCC3)nc(N3C4CCC3COC4)n2)cc1)Nc1ccc2c(c1)COC2=O | = | 0.13 |
| O=C(Nc1ccc(-c2nc(N3CCOCC3)nc(N3C4CCC3CNC4)n2)cc1)Nc1ccc2c(c1)COC2=O | > | 100 |
| C[C@H]1COCCN1c1nc(-c2ccc(NC(=O)Nc3ccc4c(c3)COC4=O)cc2)nc(N2C3CCC2COC3)n1 | = | 5.67 |

###

Let's go through some IC50 measurements on Serine/threonine-protein kinase mTOR (Homo sapiens, UniProt P42345) together.

| sample_smiles | assay_system | IC50, nM |
| --- | --- | --- |
| O=C(Nc1ccc(-c2nc(N3CCOCC3)nc(N3CC4CCC(C3)O4)n2)cc1)Nc1ccc2c(c1)COC2=O | Serine/threonine-protein kinase mTOR (Homo sapiens, UniProt P42345) | 4.6 |
| O=C(Nc1ccc(-c2nc(N3CCOCC3)nc(N3C4CCC3COC4)n2)cc1)Nc1ccc2c(c1)COC2=O | Serine/threonine-protein kinase mTOR (Homo sapiens, UniProt P42345) | 1.7 |
| O=C(Nc1ccc(-c2nc(N3CCOCC3)nc(N3C4CCC3CNC4)n2)cc1)Nc1ccc2c(c1)COC2=O | Serine/threonine-protein kinase mTOR (Homo sapiens, UniProt P42345) | 20 |
| O=C(Nc1ccc(-c2nc(N3C4CCC3COC4)nc(N3C4CCC3COC4)n2)cc1)Nc1ccc2c(c1)COC2=O | Serine/threonine-protein kinase mTOR (Homo sapiens, UniProt P42345) | 1.2 |
| CC(C)(C)OC(=O)N1CC2CCC(C1)N2c1nc(-c2ccc(NC(=O)Nc3ccc4c(c3)COC4=O)cc2)nc(N2CCOCC2)n1 | Serine/threonine-protein kinase mTOR (Homo sapiens, UniProt P42345) | 147 |

###

# assay_system: Voltage-gated inwardly rectifying potassium channel KCNH2 (Homo sapiens)
# Sequence (Q12809 whole entry): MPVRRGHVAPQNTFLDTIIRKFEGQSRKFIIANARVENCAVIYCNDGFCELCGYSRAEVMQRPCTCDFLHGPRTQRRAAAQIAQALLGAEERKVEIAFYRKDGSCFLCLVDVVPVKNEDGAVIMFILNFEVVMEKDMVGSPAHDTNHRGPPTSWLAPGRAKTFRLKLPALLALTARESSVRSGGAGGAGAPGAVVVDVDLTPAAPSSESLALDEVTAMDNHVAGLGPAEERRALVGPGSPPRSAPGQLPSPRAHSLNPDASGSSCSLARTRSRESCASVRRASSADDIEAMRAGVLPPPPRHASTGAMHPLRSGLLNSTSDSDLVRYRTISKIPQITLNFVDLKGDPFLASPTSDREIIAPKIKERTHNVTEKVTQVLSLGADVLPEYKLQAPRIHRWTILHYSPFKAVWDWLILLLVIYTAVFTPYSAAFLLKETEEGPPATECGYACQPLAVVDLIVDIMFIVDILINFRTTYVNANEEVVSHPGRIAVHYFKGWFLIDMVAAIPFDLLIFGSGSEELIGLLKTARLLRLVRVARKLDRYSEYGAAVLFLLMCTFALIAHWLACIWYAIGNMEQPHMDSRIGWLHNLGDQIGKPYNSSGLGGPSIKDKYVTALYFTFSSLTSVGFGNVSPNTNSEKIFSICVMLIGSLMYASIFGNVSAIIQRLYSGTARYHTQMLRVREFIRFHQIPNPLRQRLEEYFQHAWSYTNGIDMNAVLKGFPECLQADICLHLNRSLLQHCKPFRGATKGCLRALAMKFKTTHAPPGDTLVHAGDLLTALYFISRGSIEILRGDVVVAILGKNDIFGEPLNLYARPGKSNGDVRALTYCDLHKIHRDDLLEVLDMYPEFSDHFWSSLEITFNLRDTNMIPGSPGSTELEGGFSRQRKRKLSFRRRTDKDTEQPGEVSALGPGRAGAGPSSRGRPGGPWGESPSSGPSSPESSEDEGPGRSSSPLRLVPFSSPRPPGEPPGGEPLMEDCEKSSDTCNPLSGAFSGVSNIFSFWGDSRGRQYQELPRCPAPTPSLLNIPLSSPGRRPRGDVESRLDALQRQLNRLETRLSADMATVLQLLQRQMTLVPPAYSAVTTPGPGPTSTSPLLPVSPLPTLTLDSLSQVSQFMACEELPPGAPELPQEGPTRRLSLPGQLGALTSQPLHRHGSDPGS

| sample_smiles | assay_system | IC50 |
| --- | --- | --- |
| O=C(Nc1ccc(-c2nc(N3C4CCC3COC4)nc(N3C4CCC3COC4)n2)cc1)Nc1ccc2c(c1)COC2=O | Voltage-gated inwardly rectifying potassium channel KCNH2 (Homo sapiens) | > 30 µM |

###

# assay_system: Cytochrome P450 2C19 (Homo sapiens)
# Sequence (P33261 whole entry): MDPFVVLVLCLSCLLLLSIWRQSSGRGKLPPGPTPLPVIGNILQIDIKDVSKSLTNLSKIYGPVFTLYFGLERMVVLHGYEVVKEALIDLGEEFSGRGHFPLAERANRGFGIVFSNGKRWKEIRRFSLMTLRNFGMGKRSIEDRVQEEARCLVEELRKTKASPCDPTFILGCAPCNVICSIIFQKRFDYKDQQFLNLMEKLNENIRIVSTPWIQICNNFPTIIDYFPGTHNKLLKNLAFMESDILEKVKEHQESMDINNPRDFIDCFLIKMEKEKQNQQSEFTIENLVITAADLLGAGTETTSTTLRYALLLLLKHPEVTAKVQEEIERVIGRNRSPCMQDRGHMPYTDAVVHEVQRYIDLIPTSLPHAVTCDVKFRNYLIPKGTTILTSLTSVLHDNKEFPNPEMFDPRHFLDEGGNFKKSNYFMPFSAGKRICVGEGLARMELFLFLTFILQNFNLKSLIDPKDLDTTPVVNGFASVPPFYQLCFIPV
pIC50: −log10 of the molar value.
test_readout: pIC50

| sample_smiles | test_readout | measured_value |
| --- | --- | --- |
| O=C(Nc1ccc(-c2nc(N3C4CCC3COC4)nc(N3C4CCC3COC4)n2)cc1)Nc1ccc2c(c1)COC2=O | pIC50 | < 5.00 |

###

# assay_system: Cytochrome P450 2C9 (Homo sapiens, UniProt P11712)
# Sequence (P11712 whole entry): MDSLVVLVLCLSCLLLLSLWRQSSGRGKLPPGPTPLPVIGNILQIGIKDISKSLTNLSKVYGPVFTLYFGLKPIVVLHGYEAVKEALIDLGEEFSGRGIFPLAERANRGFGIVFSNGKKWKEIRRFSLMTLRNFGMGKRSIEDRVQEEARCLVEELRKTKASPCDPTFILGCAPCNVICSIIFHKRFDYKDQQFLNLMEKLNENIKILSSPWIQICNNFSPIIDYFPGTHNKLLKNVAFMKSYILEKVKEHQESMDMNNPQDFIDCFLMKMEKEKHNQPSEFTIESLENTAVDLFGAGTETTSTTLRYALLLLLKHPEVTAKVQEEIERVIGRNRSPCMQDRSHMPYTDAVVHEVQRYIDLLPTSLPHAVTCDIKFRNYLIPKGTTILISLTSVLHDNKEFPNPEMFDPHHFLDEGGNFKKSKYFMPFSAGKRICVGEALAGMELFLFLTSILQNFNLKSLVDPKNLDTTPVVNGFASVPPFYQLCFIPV
pIC50: −log10 of the molar value.
test_readout: pIC50

| sample_smiles | test_readout | measured_value |
| --- | --- | --- |
| O=C(Nc1ccc(-c2nc(N3C4CCC3COC4)nc(N3C4CCC3COC4)n2)cc1)Nc1ccc2c(c1)COC2=O | pIC50 | < 5.00 |

###

Listed below: IC50 values for each entry.
# assay_system: Phosphatidylinositol 4,5-bisphosphate 3-kinase catalytic subunit beta isoform (Homo sapiens, UniProt P42338)
# Sequence (P42338 whole entry, canonical isoform): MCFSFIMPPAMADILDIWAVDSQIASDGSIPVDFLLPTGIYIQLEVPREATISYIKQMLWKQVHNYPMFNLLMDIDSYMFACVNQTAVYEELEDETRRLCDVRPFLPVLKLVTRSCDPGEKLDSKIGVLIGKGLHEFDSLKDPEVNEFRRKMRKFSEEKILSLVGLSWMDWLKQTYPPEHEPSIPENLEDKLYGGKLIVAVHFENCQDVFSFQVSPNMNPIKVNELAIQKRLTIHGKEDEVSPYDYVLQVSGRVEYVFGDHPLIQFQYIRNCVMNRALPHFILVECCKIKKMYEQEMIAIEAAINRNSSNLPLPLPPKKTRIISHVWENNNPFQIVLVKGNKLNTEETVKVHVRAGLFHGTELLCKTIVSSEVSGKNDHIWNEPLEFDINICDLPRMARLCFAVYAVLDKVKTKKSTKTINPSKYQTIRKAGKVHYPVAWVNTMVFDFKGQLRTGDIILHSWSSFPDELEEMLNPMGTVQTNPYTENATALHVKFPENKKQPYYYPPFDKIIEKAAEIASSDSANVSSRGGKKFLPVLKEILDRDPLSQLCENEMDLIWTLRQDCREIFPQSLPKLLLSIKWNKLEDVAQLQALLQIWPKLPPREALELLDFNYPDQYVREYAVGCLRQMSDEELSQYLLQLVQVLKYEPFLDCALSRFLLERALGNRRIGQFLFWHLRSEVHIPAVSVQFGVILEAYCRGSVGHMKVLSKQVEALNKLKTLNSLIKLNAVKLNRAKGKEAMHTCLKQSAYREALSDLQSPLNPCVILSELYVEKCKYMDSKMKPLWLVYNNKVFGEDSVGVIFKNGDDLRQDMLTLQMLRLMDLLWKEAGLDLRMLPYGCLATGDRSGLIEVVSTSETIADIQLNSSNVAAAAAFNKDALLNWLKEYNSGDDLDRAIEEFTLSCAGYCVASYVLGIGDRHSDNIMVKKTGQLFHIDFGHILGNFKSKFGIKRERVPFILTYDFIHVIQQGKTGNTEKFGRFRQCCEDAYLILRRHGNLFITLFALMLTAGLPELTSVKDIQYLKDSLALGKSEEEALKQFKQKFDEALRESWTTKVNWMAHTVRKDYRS

| sample_smiles | IC50 |
| --- | --- |
| O=C(Nc1ccc(-c2nc(N3CCOCC3)nc(N3CCO[C@H](CO)C3)n2)cc1)Nc1ccc2c(c1)COC2=O | 93 nM |
| C[C@H]1COCCN1c1nc(-c2ccc(NC(=O)Nc3ccc4c(c3)COC4=O)cc2)nc(N2CCOCC2)n1 | 754 nM |
| O=C(Nc1ccc(-c2nc(N3CCOCC3)nc(N3CCOCC3)n2)cc1)Nc1ccc2c(c1)COC2=O | 129 nM |
